- ASSAY REMARKS: log P determination by HPLC on reverse-phase column (EEC Directive 79/831 Annex V.A8)
- Assay type: physicochemical
- TEST CONDITIONS: HPLC on reverse-phase column
MEASURE: logP

Known logP results, listed for orientation:
Kindly note the recorded logP for Cc1cc(Cl)cc(C(=O)NC(C)C)c1NC(=O)c1cc(Cn2nnn(-c3cc(C(F)(F)F)cc(C(F)(F)F)c3)c2=O)nn1-c1ncccc1Cl , which is 4.51

Kindly note the recorded logP for CNC(=O)c1cc(Cl)cc(C)c1NC(=O)c1cc(Cn2nc(C(F)(F)C(F)(F)F)nc2C(F)(F)C(F)(F)F)nn1-c1ncccc1Cl , which is 4.17

Kindly note the recorded logP for Cc1cc(Cl)cc(C(=O)NC(C)C)c1NC(=O)c1cc(Cn2nnn(-c3ccc(C(F)(F)F)cc3)c2=O)nn1-c1ncccc1Cl , which is 3.96

Kindly note the recorded logP for CNC(=O)c1cc(Cl)cc(C)c1NC(=O)c1cc(Cn2nnc(-c3ccc(C(F)(F)F)cc3)n2)nn1-c1ncccc1Cl , which is 3.79

a: Cc1cc(Cl)cc(C(=O)NC(C)CS(C)(=N)=O)c1NC(=O)c1cc(Cn2nc(C(F)(F)F)nc2C(F)(F)F)nn1-c1ncccc1Cl (stereo not drawn)
b: Cc1cc(Cl)cc(C(N)=O)c1NC(=O)c1cc(Cn2nnc(-c3cc(C(F)(F)F)cc(C(F)(F)F)c3)n2)nn1-c1ncccc1Cl
Enquiry: // which entry has the larger logP value, a or b ? Give the label under which the chosen entry appears.
Return: b
(b: 4.03, a: 2.75)

====

- ASSAY REMARKS: log P determination by HPLC on reverse-phase column (EEC Directive 79/831 Annex V.A8)
- Type: physicochemical
MEASURE: logP

Known logP results, listed for orientation:
Kindly note the recorded logP for NC(=O)c1cc(Cl)cc(Cl)c1NC(=O)c1cc(Cn2cc(Cl)c(C(F)(F)C(F)(F)F)n2)nn1-c1ncccc1Cl , which is 2.95

Kindly note the recorded logP for Cc1cc(Cl)cc(C(=O)NC2CC2CO)c1NC(=O)c1cc(Cn2cc(Cl)c(C(F)(F)C(F)(F)F)n2)nn1-c1ncccc1Cl (centres unmarked) , which is 3.37

Kindly note the recorded logP for Cc1cc(C#N)cc(C(=O)NC2CC2)c1NC(=O)c1cc(Cn2cnc(C(F)(F)C(F)(F)F)n2)nn1-c1ncccc1Cl [I-1-338] , which is 2.45

A: Cc1cc(Cl)cc(C(=O)NC(CN2CCCCC2)C2CC2)c1NC(=O)c1cc(Cn2cc(Cl)c(C(F)(F)C(F)(F)F)n2)nn1-c1ncccc1Cl (centres unmarked)
B: Cc1cc(Cl)cc(C(=O)NCc2ccco2)c1NC(=O)c1cc(Cn2cc(Cl)c(C(F)(F)C(F)(F)F)n2)nn1-c1ncccc1Cl
Enquiry: Pick one: A or B . Which one has the lower reported logP? Give the label under which the chosen entry appears.
Return: A

====

- ASSAY REMARKS: log P determination by HPLC on reverse-phase column (EEC Directive 79/831 Annex V.A8)
- Format: physicochemical
Entries and their logP values follow.
Answer with a bare number; do not write a unit.

Known logP results, listed for orientation:
Kindly note the recorded logP for Cc1cc(C#N)cc(C(=O)NC(C)C)c1NC(=O)c1cc(Cn2cc(Cl)c(C(F)(F)C(F)(F)F)n2)nn1-c1ncccc1Cl [I-1-172] , which is 3.87

Kindly note the recorded logP for Cc1cc(C#N)cc(C(=O)NCc2ccco2)c1NC(=O)c1cc(Cn2cc(Cl)c(C(F)(F)C(F)(F)F)n2)nn1-c1ncccc1Cl [I-1-208] , which is 3.90

Kindly note the recorded logP for NC(=O)c1cc(Cl)cc(Cl)c1NC(=O)c1cc(Cn2cnc(C(F)(F)C(F)(F)F)n2)nn1-c1ncccc1Cl [I-1-346] , which is 2.01

Next:
Kindly note the recorded logP for Cc1cc(C#N)cc(C(=O)NC(C)C)c1NC(=O)c1cc(Cn2cnc(C(F)(F)C(F)(F)F)n2)nn1-c1ncccc1Cl [I-1-354] , which is 2.23

Kindly note the recorded logP for Cc1cc(I)cc(C(=O)NC(C)C)c1NC(=O)c1cc(Cn2nc(C(F)(F)F)nc2C(F)(F)F)nn1-c1ncccc1Cl [I-1-238] , which is 4.06

Kindly note the recorded logP for CNC(=O)c1cc(Cl)cc(C)c1NC(=O)c1cc(Cn2cnc(SC)n2)nn1-c1ncccc1Cl [I-1-265] , which is 1.94

Kindly note the recorded logP for CCNC(=O)c1cc(I)cc(C)c1NC(=O)c1cc(Cn2nc(C(F)(F)F)nc2C(F)(F)F)nn1-c1ncccc1Cl [I-1-283] , which is 3.89

====

- ASSAY REMARKS: log P determination by HPLC on reverse-phase column (EEC Directive 79/831 Annex V.A8)
- Format: physicochemical
Entries and their logP values follow.
Answer with a bare number; do not write a unit.

Known logP results, listed for orientation:
Kindly note the recorded logP for Cc1cc(Cl)cc(C(=O)NCC#N)c1NC(=O)c1cc(Cn2cnc(C(F)(F)C(F)(F)F)n2)nn1-c1ncccc1Cl [I-1-348] , which is 2.21

Kindly note the recorded logP for CNC(=O)c1cc(Cl)cc(Cl)c1NC(=O)c1cc(Cn2nc(C(F)(F)F)cc2C(F)(F)F)nn1-c1ncccc1Cl , which is 3.01

Kindly note the recorded logP for Cc1cc(C#N)cc(C(=O)NCC#N)c1NC(=O)c1cc(Cn2ccc(C(F)(F)F)n2)nn1-c1ncccc1Cl , which is 2.62

Kindly note the recorded logP for N#CCNC(=O)c1cc(Cl)cc(Cl)c1NC(=O)c1cc(Cn2nc(C(F)(F)F)cc2C(F)(F)F)nn1-c1ncccc1Cl , which is 2.98

Kindly note the recorded logP for Cc1cc(C#N)cc(C(N)=O)c1NC(=O)c1cc(Cn2nc(C(F)(F)F)nc2C(F)(F)F)nn1-c1ncccc1Cl , which is 2.91

Next:
Kindly note the recorded logP for Cc1cc(Cl)cc(C(=O)NC(C)C)c1NC(=O)c1cc(Cn2nnc(-c3ccccc3)n2)nn1-c1ncccc1Cl , which is 3.60

Kindly note the recorded logP for Cc1cc(C#N)cc(C(=O)NC2CC2)c1NC(=O)c1cc(Cn2cnc(C(F)(F)C(F)(F)F)n2)nn1-c1ncccc1Cl [I-1-353] , which is 2.08

====

- ASSAY REMARKS: log P determination by HPLC on reverse-phase column (EEC Directive 79/831 Annex V.A8)
- Type: physicochemical
- TEST CONDITIONS: HPLC on reverse-phase column
MEASURE: logP

Kindly note the recorded logP for Cc1cc(Cl)cc(C(=O)NC(C)C)c1NC(=O)c1cc(Cn2ccc(C(F)(F)C(F)(F)F)n2)nn1-c1ncccc1Cl , which is 3.75

Kindly note the recorded logP for Cc1cc(Cl)cc(C(=O)NCC#N)c1NC(=O)c1cc(Cn2nnn(-c3cc(C(F)(F)F)cc(C(F)(F)F)c3)c2=O)nn1-c1ncccc1Cl , which is 4.01

Kindly note the recorded logP for CSC[C@H](C)NC(=O)c1cc(Br)cc(C)c1NC(=O)c1cc(Cn2nc(C(F)(F)F)nc2C(F)(F)F)nn1-c1ncccc1Cl , which is 4.24

Kindly note the recorded logP for CSC[C@H](C)NC(=O)c1cc(Cl)cc(C)c1NC(=O)c1cc(Cn2nc(C(F)(F)F)nc2C(F)(F)F)nn1-c1ncccc1Cl , which is 4.04

Kindly note the recorded logP for CNC(=O)c1cc(Cl)cc(C)c1NC(=O)c1cc(Cn2nnn(-c3cc(Cl)cc(Cl)c3)c2=O)nn1-c1ncccc1Cl , which is 3.90

Kindly note the recorded logP for Cc1cc(Cl)cc(C(=O)NC(C)C)c1NC(=O)c1cc(Cn2cc(I)c(C(F)(F)F)n2)nn1-c1ncccc1Cl , which is 3.85

Kindly note the recorded logP for Cc1cc(Br)cc(C(N)=O)c1NC(=O)c1cc(Cn2cc(C(F)(F)C(F)(F)F)c(C(F)(F)C(F)(F)F)n2)nn1-c1ncccc1Cl , which is 4.17

====

- ASSAY REMARKS: log P determination by HPLC on reverse-phase column (EEC Directive 79/831 Annex V.A8)
- Type: physicochemical
- TEST CONDITIONS: HPLC on reverse-phase column
MEASURE: logP

Kindly note the recorded logP for Cc1cc(Br)cc(C(N)=O)c1NC(=O)c1cc(Cn2nc(C(F)(F)F)cc2C(F)(F)F)nn1-c1ncccc1Cl , which is 3.53

Kindly note the recorded logP for Cc1cc(Cl)cc(C(=O)NC(C)C)c1NC(=O)c1cc(Cn2nc(C(F)(F)C(F)(F)F)nc2C(F)(F)F)nn1-c1ncccc1Cl , which is 4.25

Kindly note the recorded logP for Cc1cc(Br)cc(C(=O)NC(C)C)c1NC(=O)c1cc(Cn2nc(C(F)(F)F)cc2C(F)(F)F)nn1-c1ncccc1Cl , which is 4.16

Kindly note the recorded logP for CNC(=O)c1cc(Br)cc(C)c1NC(=O)c1cc(Cn2nc(C(F)(F)C(F)(F)F)cc2C(F)(F)C(F)(F)F)nn1-c1ncccc1Cl , which is 4.49

meta.source: patent US8101550B2
